assayDetails: Coagulating activity (coagulation agents for water treatment), graded relative to FLO
Set-up: key: +++: higher activity than FLO; ++: equivalent activity of FLO; +: lower activity than FLO; −: no activity observed
measurementSetup: coagulating activity compared with FLO
measurementType: Coag.

Example cases with answers are listed next.
recordSequence | observedResult
GQVGPQQVRQMYRVASNIPST [P3, derivative of FLO] | −
AVQLTHQQQGQV [P2c, derivative of FLO] | −
SLRQAVQLTHQ [P2b, derivative of FLO] | −
QGPGRQPDFQRCGQQLRNISPP [P1, derivative of FLO] | −
PQRCPSLRQAVQLTHQQQGQV [P2, derivative of FLO] | ++

The reported value for RCGQQLRNISPPQRCPSLRQAVQLTHQQQGQ [P2.1, derivative of FLO] in terms of Coag. is −

The reported value for PQRCPSLRQAVQLTHQ [P2ab, derivative of FLO] in terms of Coag. is ++

The reported value for PQRCPSLRQAV [P2a, derivative of FLO] in terms of Coag. is −

The reported value for QGPGRQPDFQRCGQQLRNISPPQRCPSLRQAVQLTHQQQGQVGPQQRQMYRVASNIPST [Flo, protein called FLO, disclosed in WO 03/008441 A2; coagulation and antimicrobial agent, reference compound] in terms of Coag. is ++

The reported value for PQRCPSLRQAVQLTHQQQRQV [P2GR40, derivative of FLO] in terms of Coag. is +++
